target: GAL4-hERα (Homo sapiens, UniProt P03372); construct: GAL4hERα (or β) LBD chimeric receptors; expressed in transfected cells; host or cells: CHO-K1 (CCRC 60006), transient co-transfection with Fugene 6; assay: Transactivation assay for estrogen activity, GAL4-hERα LBD chimeric receptor with (UAS)4-alkaline phosphatase reporter in CHO-K1 cells; type: cell-based; conditions: CHO-K1 cells, ALP reporter; value in parentheses; read-out: EC50 value for ERα (converted)
Sequence (P03372 311-547 limits assumed): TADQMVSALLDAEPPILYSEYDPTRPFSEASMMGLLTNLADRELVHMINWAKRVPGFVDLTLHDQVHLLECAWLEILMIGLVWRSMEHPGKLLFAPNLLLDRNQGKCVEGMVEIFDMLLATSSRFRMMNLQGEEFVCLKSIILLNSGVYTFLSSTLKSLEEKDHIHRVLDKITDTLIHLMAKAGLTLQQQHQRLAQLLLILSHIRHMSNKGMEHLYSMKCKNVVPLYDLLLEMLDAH

- molecule: "COc1c(O)c(C)c2c(c1OC)O[C@](C)(CC/C=C(\\C)CC/C=C(\\C)CC/C=C(\\C)CC/C=C(\\C)CC/C=C(\\C)CC/C=C(\\C)CC/C=C(\\C)CCC=C(C)C)C=C2 [compound 2, hydro-Q9 chromene]"
  EC50 [µM]: 10.8
- molecule: "Cc1c(C)c2c(c(C)c1O)CC[C@@](C)(CCC[C@H](C)CCC[C@H](C)CCCC(C)C)O2"
  EC50 [µM]: 2.5
- molecule: "CC(C)=CCC/C(C)=C/CC/C(C)=C/CC/C(C)=C/CC/C(C)=C/CC/C(C)=C/CC/C(C)=C/CC/C(C)=C/CC[C@]1(C)CCc2cc(O)c(C)c(C)c2O1"
  EC50 [µM]: 12.7
- molecule: "COC1=C(OC)C(=O)C(C/C=C(\\C)CC/C=C(\\C)CC/C=C(\\C)CC/C=C(\\C)CC/C=C(\\C)CC/C=C(\\C)CC/C=C(\\C)CC/C=C(\\C)CCC=C(C)C)=C(C)C1=O"
  EC50 [µM]: 13.3

* * *

target: GAL4-hERβ (Homo sapiens, UniProt Q92731); construct: GAL4hERα (or β) LBD chimeric receptors; expressed in transfected cells; host or cells: CHO-K1 (CCRC 60006), transient co-transfection with Fugene 6; test: Transactivation assay for estrogen activity, GAL4-hERβ LBD chimeric receptor with (UAS)4-alkaline phosphatase reporter in CHO-K1 cells; assay type: cell-based; conditions: CHO-K1 cells, ALP reporter; read-out: EC50 value for ERβ (converted)
Sequence (Q92731 264-498 limits assumed): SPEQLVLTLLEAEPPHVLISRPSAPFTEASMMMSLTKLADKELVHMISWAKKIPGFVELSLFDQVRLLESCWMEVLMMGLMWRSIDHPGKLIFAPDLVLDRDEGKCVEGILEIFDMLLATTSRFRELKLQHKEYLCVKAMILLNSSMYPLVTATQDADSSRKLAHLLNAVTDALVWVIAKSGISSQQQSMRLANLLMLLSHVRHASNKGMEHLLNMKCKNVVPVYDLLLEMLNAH
We begin with a simple list: items and their reported EC50.

- compound: "COc1c(O)c(C)c2c(c1OC)O[C@](C)(CC/C=C(\\C)CC/C=C(\\C)CC/C=C(\\C)CC/C=C(\\C)CC/C=C(\\C)CC/C=C(\\C)CC/C=C(\\C)CCC=C(C)C)C=C2 [compound 2, hydro-Q9 chromene]"
  assay.system: "GAL4-hERβ (Homo sapiens, UniProt Q92731)"
  EC50, µM: 7.36
- compound: "CC(C)=CCC/C(C)=C/CC/C(C)=C/CC/C(C)=C/CC/C(C)=C/CC/C(C)=C/CC/C(C)=C/CC/C(C)=C/CC[C@]1(C)CCc2cc(O)c(C)c(C)c2O1 [compound 6, γ-tocopherol-9]"
  assay.system: "GAL4-hERβ (Homo sapiens, UniProt Q92731)"
  EC50, µM: 3.19
- compound: "Cc1c(C)c2c(c(C)c1O)CC[C@@](C)(CCC[C@H](C)CCC[C@H](C)CCCC(C)C)O2 [compound 1, RRR-α-tocopherol]"
  assay.system: "GAL4-hERβ (Homo sapiens, UniProt Q92731)"
  EC50, µM: 9.19
- compound: "COC1=C(OC)C(=O)C(C/C=C(\\C)CC/C=C(\\C)CC/C=C(\\C)CC/C=C(\\C)CC/C=C(\\C)CC/C=C(\\C)CC/C=C(\\C)CC/C=C(\\C)CCC=C(C)C)=C(C)C1=O [compound 3, coenzyme Q9]"
  assay.system: "GAL4-hERβ (Homo sapiens, UniProt Q92731)"
  EC50, µM: 1.06
